Provide the reported pIC50 of each item.
# pIC50: negative log10 of molar concentration; output just the value

Test system UniProt:P00734; read-out pIC50; what value for N=C(N)c1cc2cc(OC(=O)c3ccsc3)ccc2o1 ?
6.44

Identify the measured pIC50 of N=C(N)c1nc2ccc(OC(=O)c3ccccc3)cc2s1 for UniProt:P00734.
7.36

Kindly state the measured pIC50 obtained for N=C(N)c1ccc2cc(OC(=O)c3ccccc3)ccc2c1 [reference, reference compound] with UniProt:P00734.
5.51

* * *

TGT: Factor D (Homo sapiens)
Sequence (P00746 26-253): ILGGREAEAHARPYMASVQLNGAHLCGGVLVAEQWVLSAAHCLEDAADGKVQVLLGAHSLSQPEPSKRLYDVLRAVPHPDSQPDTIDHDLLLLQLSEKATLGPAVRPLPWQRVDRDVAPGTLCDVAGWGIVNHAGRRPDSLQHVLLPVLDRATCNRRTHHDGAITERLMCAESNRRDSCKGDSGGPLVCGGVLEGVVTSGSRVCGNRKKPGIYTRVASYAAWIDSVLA
ASSAY_PROCEDURE: Factor D esterolytic inhibition assay (Z-Lys-SBzl substrate)
Type: biochemical
Design: Factor D was purified from the urine of a patient with Fanconi syndrome by ion exchange chromatography; from tissue; host or cells: urine of a patient with Fanconi syndrome
TEST_CONDITIONS: Z-Lys-SBzl 1.29 mM, pH 7.5, 10% DMSO; read-out: Factor D (Serine Protease Inhibitory Data, IC50)
REPORTED_ENDPOINT: log10 of IC50 (log10 of the value in nM)
The base-10 logarithm of IC50, taken with IC50 in nM, is what appears here.

What measured log10 of IC50 goes with N=C(N)c1nc2ccc(OC(=O)c3ccsc3)cc2s1 ?
2.31

Dear colleague, I am looking for the recorded log10 of IC50 of the following molecule: N=C(N)c1nc2ccc(OC(=O)c3ccco3)cc2s1
2.62

Can you share its log10 of IC50? I mean this molecule: N=C(N)c1nc2ccc(OC(=O)c3ccccc3)cc2s1
2.75

Which log10 of IC50 value is on record for N=C(N)c1cc2ccc(OC(=O)c3ccco3)cc2s1 ?
2.17

Using the record for N=C(N)c1cc2cc(OC(=O)c3cccs3)ccc2o1 , report its log10 of IC50.
3.75

Quick one: log10 of IC50 for CC/C=C/C(=O)Oc1ccc2cc(C(=N)N)sc2c1 ?
2.28

Report log10 of IC50 for N=C(N)c1ccc2cc(OC(=O)c3ccc(N=C(N)N)cc3)ccc2c1 [nafamostat, reference compound] please.
4.04

Dear colleague, I am looking for the recorded log10 of IC50 of the following molecule: N=C(N)c1cc2ccc(OC(=O)c3ccccc3)cc2s1
2.70

What value of log10 of IC50 has been recorded for this entry: N=C(N)c1cc2ccc(OC(=O)c3cccs3)cc2s1
1.98

Which log10 of IC50 is listed for N=C(N)c1cc2cc(OC(=O)c3ccsc3)ccc2o1 ?
4.03

Need log10 of IC50 of N=C(N)c1nc2ccc(OC(=O)c3ccc(Cl)s3)cc2s1 , thanks.
2.41

GET /values?readout=log10 of IC50&item= N=C(N)c1cc2ccc(OC(=O)c3ccsc3)cc2s1
2.24

Can you look up the measured log10 of IC50 of N=C(N)c1cc2cc(OC(=O)c3ccco3)ccc2o1 for me?
2.66

Give the measured log10 of IC50 of N=C(N)c1ccc2cc(OC(=O)c3ccccc3)ccc2c1 [reference, reference compound] .
3.60

Can you look up the measured log10 of IC50 of N=C(N)c1nc2ccc(OC(=O)c3ccoc3)cc2s1 for me?
2.46
